Provide the reported GI50 of each item.
- Tested on: OVCAR-5 ovarian
- experiment-summary: NCI tumour cell line growth inhibition, 384-well format

# example entries with known answers
>  <smiles-code>
c1ccc(-c2nn3c(c2-c2ccnc4cc(OCCN5CCOCC5)ccc24)CCC3)nc1

>  <observed-measurement>
> 100 µM

$$$$
>  <smiles-code>
C=CC(=O)N1CCC(c2ccc(C(N)=O)c(-c3ccc(Oc4ccccc4)cc3)n2)CC1

>  <observed-measurement>
> 100 µM

$$$$
>  <smiles-code>
COc1ccc([C@H](CC(=O)O)N2CCN(CCCc3ccc4c(n3)NCCC4)C2=O)cn1

>  <observed-measurement>
0.0927 µM

$$$$

Consider the additional compound presented here.
# input Find the measured GI50 of [2H]C([2H])([2H])NC(=O)c1nnc(NC(=O)C2CC2)cc1Nc1cccc(-c2ncn(C)n2)c1OC and report it.
# output > 100 µM
